The reported numbers originate from the supplement of paper PMC3545927.

- TARGET_OF_ASSAY: furin, P09958;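 further: purified furin at 1:10 enzyme:substrate in 50 mM HEPES pH 7.5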
- Sequence (P09958 whole entry): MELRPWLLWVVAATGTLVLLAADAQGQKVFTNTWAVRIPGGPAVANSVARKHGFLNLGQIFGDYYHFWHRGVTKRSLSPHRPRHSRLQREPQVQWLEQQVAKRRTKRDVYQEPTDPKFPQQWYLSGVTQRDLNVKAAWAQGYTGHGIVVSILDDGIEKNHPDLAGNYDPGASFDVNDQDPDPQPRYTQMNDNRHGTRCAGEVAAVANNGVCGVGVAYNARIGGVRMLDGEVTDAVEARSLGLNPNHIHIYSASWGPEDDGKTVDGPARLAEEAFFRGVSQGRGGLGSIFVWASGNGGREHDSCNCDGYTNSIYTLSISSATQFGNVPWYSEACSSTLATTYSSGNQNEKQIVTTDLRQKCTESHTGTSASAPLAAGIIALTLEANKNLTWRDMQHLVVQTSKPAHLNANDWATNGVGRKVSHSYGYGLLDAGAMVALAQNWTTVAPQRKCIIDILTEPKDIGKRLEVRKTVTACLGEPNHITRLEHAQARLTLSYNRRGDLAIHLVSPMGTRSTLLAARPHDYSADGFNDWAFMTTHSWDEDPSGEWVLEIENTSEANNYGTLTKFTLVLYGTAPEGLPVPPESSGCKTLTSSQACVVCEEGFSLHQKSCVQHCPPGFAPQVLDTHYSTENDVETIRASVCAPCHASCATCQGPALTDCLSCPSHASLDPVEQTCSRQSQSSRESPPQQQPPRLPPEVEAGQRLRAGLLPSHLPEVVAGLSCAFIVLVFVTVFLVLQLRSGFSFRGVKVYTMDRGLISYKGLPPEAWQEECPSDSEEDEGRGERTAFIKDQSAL
- PROTOCOL_SUMMARY: furin cleavage Z-score vs untreated control; higher = more cleavage, active = 3.5 or more, inactive = 1 or less, 8 variable residues between constant flanks
- STATED_CONDITIONS: 7.5 min
The list shows a part of the results. How many sequences the whole screen found active is unknown.

# BIOSEQUENCE, furin cleavage Z-score
data = [
    ("CARRRRKQRKAGNASASA [FS-2791]", 2.34),
    ("CAKPARLIVFAGNASASA [HC1448]", 0.00411),
    ("CARQGRSGQKAGNASASA [FS-2063]", -0.381),
    ("CADTTIMAKNAGNASASA [HC1438]", 1.51),
    ("CAGHITGHRMAGNASASA [HC316]", 0.56),
    ("CADNKRMARNAGNASASA [FS-984]", 5.12),
    ("CAMEECGQHLAGNASASA [HC22]", 0.622),
    ("CAMDYRGRRKAGNASASA [FS-1544]", -0.964),
    ("CASTPCSWHLAGNASASA [HC2528]", 1.37),
    ("CASTPCSAFLAGNASASA [HC2547]", -0.397),
    ("CARPRRYLYQAGNASASA [FS-2285]", 3.25),
    ("CAEPLRKKKKAGNASASA [FS-1320]", -0.899),
    ("CATTNCSGSWAGNASASA [HC1881]", -0.528),
    ("CAFERRSFETAGNASASA [FS-2390]", -1.51),
    ("CACRRRRRRKAGNASASA [FS-583]", 7.53),
]
